Tested on: LYN
experimental-setup: concentration: 1 μM, replicates: in singlicate; n = 1;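 also: KINOMEscan kinase panel screen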
observation-type: %Inh (%)
API: value field is a number in %; no unit string.

Solved entries (count: 2):
molecule | readout-units | %Inh
Nc1ncnc2c1ncn2-c1ccc(Cl)cc1 [AH2635] | % | 0
COc1cc2ncn(-c3cc(OCc4ccncc4Br)c(C(N)=O)s3)c2cc1OC [GW854278] | % | 4

Challenge: Given the entry CCn1c(-c2nonc2N)nc2ccccc21 [SB-693162/GW549034] , report its measured %Inh.
Response given: 0

Challenge: Returns the measured %Inh for the input molecule. Input: COC(=O)c1c(-c2ccccc2)c2cc(C)ccc2c(=O)n1Cc1ccccc1
Response given: 7

Challenge: %Inh lookup needed for CCC(=O)c1c(-c2ccccc2)c2cc(Cl)ccc2c(=O)n1Cc1ccc(C(=O)O)cc1 , thanks.
Response given: 0

Challenge: Please look up its %Inh: Cc1cccc(-c2nc(Nc3ccc4c(cnn4C)c3)c3ccccc3n2)n1 [GW876731]
Response given: 5

Challenge: Consider the molecule CN1C(=O)C(Nc2cc(Cl)c(O)c(Cl)c2)=C(c2ccc(Cl)cc2)C1=O [SB-404321] and give its measured %Inh.
Response given: 24

Challenge: Reported %Inh for CCC(=O)c1c(-c2ccccc2)c2cc(Cl)ccc2c(=O)n1Cc1cc(S(C)(=O)=O)n(CC(F)F)n1 : what is it?
Response given: 0

Challenge: Param item = C[C@@H]1CC[C@H](C(=O)NC2CCCCC2)CN1c1cc(-c2ccc3c(N)n[nH]c3c2)nc(N)n1 [GSK2291363] ; retrieve measured %Inh.
Response given: 0

====

Tested on: RIPK4
experimental-setup: concentration: 1 μM, replicates: in singlicate; n = 1
Listing of recorded %Inh by entry.
Response body: numeric value in %, unit text excluded.

Guide cases for %Inh, answers given:
compound | %Inh / %
Cc1nn2c(=O)cc(N3CCOCC3)nc2n1Cc1cccc(Cl)c1Cl [GSK2342769] | 9
COc1cccc(-n2cnc3c(N)ncnc32)c1 [SKF-97416] | 43
COc1ccc(-n2cnc3c(N)ncnc32)cc1 [SKF-97236] | 9
COc1ccc(-c2cc3c(C)nc(N)nc3n([C@H]3CC[C@H](O)CC3)c2=O)cn1 | 0
CCc1ccc(-c2ccc3c(c2)-c2nn(C)cc2S(=O)(=O)N3C)cc1 | 0

Challenge: Enter reported %Inh observed with RIPK4 for COc1cc2ncn(-c3cc(OCc4ccc(S(C)(=O)=O)cc4)c(C(N)=O)s3)c2cc1OC [GW869979]
Response given: 35

Challenge: Can you look up %Inh on RIPK4 for Cc1nnc(-c2ccc(C)c(-c3ccc(C(=O)O)cc3)c2)o1 [GW608005] ?
Response given: 9

====

Measured %Inh values are reported for all entries that follow.
Test system: IKK-epsilon
Construct: gene IKBKE
experimental-setup: concentration: 1 μM, replicates: in singlicate; n = 1
A complete answer gives the number followed by the unit.

Look over these answered cases.
molecule-smiles | %Inh
Cc1ccccc1COc1cc(-n2cnc3cc(Cl)ccc32)sc1C(N)=O | 62%
COc1ccc(-n2cnc3c(N)ncnc32)cc1 | 3%
COC(=O)c1c(-c2ccccc2)c2cc(Br)ccc2c(=O)n1Cc1ccc(NC(=O)CCC(=O)O)cc1 | 0%
COC(=O)c1c(-c2ccccc2)c2cc(Br)ccc2c(=O)n1Cc1ccc(S(C)(=O)=O)cc1 | 15%
COc1ccc(-c2cc3c(C)nc(N)nc3n([C@H]3CC[C@H](OCCO)CC3)c2=O)cn1 | 0%

Challenge: Look up %Inh: CN(C)c1cc(-c2ccc3c(N)n[nH]c3c2)nc(N)n1
Response given: 40%

Challenge: Quick one: %Inh of Cn1c(=O)c(F)c(Nc2ccc(I)cc2F)c2c(=O)n(OC[C@H](O)CO)cnc21 ?
Response given: 0%

Challenge: Please look up its %Inh: O=C(Nc1n[nH]c2nc(-c3ccccc3)c(Cl)cc12)C1CC1
Response given: 0%

Challenge: Form field: reported %Inh of Nc1ncnc2c1ncn2-c1cccc(F)c1
Response given: 23%
